species on record: Rattus norvegicus; assay: Open TG-GATES - Regimen: Daily Repeat; assay type: toxicity, organism-based, Sprague-Dawley; design: regimen Daily Repeat, gender Male, age 6 weeks; details: in vivo, po, 100 mg/kg, 72 h, tissue Blood, route gavage, dose level Low, time 3 day
Kindly return MET if reported Lym is no lower than 80%; return NOT MET if it is lower.

>  <compound>
CCOC(=O)CCC(=O)O[C@H]1[C@H](O[C@@H]2[C@@H](C)[C@H](O[C@H]3C[C@@](C)(OC)[C@@H](O)[C@H](C)O3)[C@@H](C)C(=O)O[C@H](CC)[C@@](C)(O)[C@H](O)[C@@H](C)C(=O)[C@H](C)C[C@@]2(C)O)O[C@H](C)C[C@@H]1N(C)C [ERYTHROMYCIN ETHYLSUCCINATE]

>  <class_assignment>
MET

$$$$
>  <compound>
CCOc1ccc(NC(=O)CC(C)O)cc1 (stereo not given)

>  <class_assignment>
NOT MET

$$$$
>  <compound>
COc1ccc2[nH]c([S+]([O-])Cc3ncc(C)c(OC)c3C)nc2c1 (stereo not given)

>  <class_assignment>
NOT MET

$$$$

----------
Each entry below lists one item and its recorded K value.
organism: Rattus norvegicus; test: Open TG-GATES - Regimen: Single; format: toxicity, organism-based, Sprague-Dawley; set-up: regimen Single, gender Male, age 6 weeks; details: in vivo, po, 30 mg/kg, 6 h, tissue Plasma, route gavage, dose level Middle
readout_label: K (meq/L)

>  <compound>
CN(C)CCCN1c2ccccc2CCc2ccccc21 [IMIPRAMINE]

>  <unit_abbreviation>
meq/L

>  <obs_value>
4.1

$$$$
>  <compound>
CN(C)CCCN1c2ccccc2CCc2ccc(Cl)cc21 [CLOMIPRAMINE]

>  <unit_abbreviation>
meq/L

>  <obs_value>
4.2

$$$$
>  <compound>
CC1=C(/C=C/C(C)=C/C=C/C(C)=C/CO)C(C)(C)CCC1 [RETINOL]

>  <unit_abbreviation>
meq/L

>  <obs_value>
4.4

$$$$
>  <compound>
CN(C)CCN(Cc1cccs1)c1ccccn1

>  <unit_abbreviation>
meq/L

>  <obs_value>
4.5

$$$$

----------
species: Rattus norvegicus; experiment: Open TG-GATES - Regimen: Single; assay type: toxicity, organism-based, Sprague-Dawley; parameters: regimen Single, gender Male, age 6 weeks; details: in vivo, po, 100 mg/kg, 6 h, tissue Blood, route gavage, dose level High
Each entry below lists one item and its recorded APTT value.
readout_label: APTT

>  <smiles_representation>
CN(C)CCCN1c2ccccc2CCc2ccccc21

>  <readout_label>
APTT

>  <obs_value>
15.9 s

$$$$
>  <smiles_representation>
CN(C)CCN(Cc1cccs1)c1ccccn1

>  <readout_label>
APTT

>  <obs_value>
21.3 s

$$$$
>  <smiles_representation>
CN(C)CCCN1c2ccccc2CCc2ccc(Cl)cc21

>  <readout_label>
APTT

>  <obs_value>
17.8 s

$$$$
>  <smiles_representation>
CC1=C(/C=C/C(C)=C/C=C/C(C)=C/CO)C(C)(C)CCC1

>  <readout_label>
APTT

>  <obs_value>
20.3 s

$$$$

----------
Each entry below lists one item and its recorded TC value.
organism: Rattus norvegicus; assay: Open TG-GATES - Regimen: Daily Repeat; type: toxicity, organism-based, Sprague-Dawley; design: regimen Daily Repeat, gender Male, age 6 weeks; settings: in vivo, po, 100 mg/kg, […], tissue Plasma, route gavage, dose level Low, time 14 day

>  <compound>
CCOc1ccc(NC(=O)CC(C)O)cc1 (stereo not given)

>  <unit_abbreviation>
mg/dL

>  <TC>
71.2

$$$$
>  <compound>
COC1=CC(=O)C[C@@H](C)[C@]12Oc1c(Cl)c(OC)cc(OC)c1C2=O

>  <unit_abbreviation>
mg/dL

>  <TC>
72.6

$$$$
>  <compound>
NC(N)=Nc1nc(CSCCC(N)=NS(N)(=O)=O)cs1

>  <unit_abbreviation>
mg/dL

>  <TC>
67

$$$$
>  <compound>
CCOC(=O)CCC(=O)O[C@H]1[C@H](O[C@@H]2[C@@H](C)[C@H](O[C@H]3C[C@@](C)(OC)[C@@H](O)[C@H](C)O3)[C@@H](C)C(=O)O[C@H](CC)[C@@](C)(O)[C@H](O)[C@@H](C)C(=O)[C@H](C)C[C@@]2(C)O)O[C@H](C)C[C@@H]1N(C)C [ERYTHROMYCIN ETHYLSUCCINATE]

>  <unit_abbreviation>
mg/dL

>  <TC>
79

$$$$
>  <compound>
COc1ccc2[nH]c([S+]([O-])Cc3ncc(C)c(OC)c3C)nc2c1 (stereo not given)

>  <unit_abbreviation>
mg/dL

>  <TC>
73.4

$$$$
